All values here come from patent US6482948B1.

The reader will find IC50 measurements below, all made with PDE 5 (cGMP specific PDE) (Homo sapiens, UniProt O76074).
endpoint: IC50 (nM)

Record excerpt, results attached:
CCOC(=O)c1nc(NCc2ccc(OC)c(Cl)c2)c2c3c(sc2n1)CN(C)CC3
31
COc1ccc(CNc2nc(C(=O)Nc3ccncc3)nc3sc4c(c23)CCN(C)C4)cc1Cl
2.1
COc1ccc(CNc2nc(C(=O)Nc3cccnc3)nc3sc4c(c23)CCN(C)C4)cc1Cl
6
COc1ccc(CNc2nc(C(=O)NCc3ccccc3)nc3sc4c(c23)CCN(C)C4)cc1Cl
16
COc1ccc(CNc2nc(C(=O)NC3CC3)nc3sc4c(c23)CCN(C(C)C)C4)cc1Cl
56
COc1ccc(CNc2nc(-c3ccco3)nc3sc4c(c23)CCN(C)C4)cc1Cl
50
COc1ccc(CNc2nc(C(N)=O)nc3sc4c(c23)CCN(C)C4)cc1Cl
75

(1) COC(=O)c1nc(NCc2ccc(OC)c(Cl)c2)c2c3c(sc2n1)CN(Cc1ccccc1)CC3
(2) COc1ccc(CNc2nc(-c3ccc4c(c3)OCO4)nc3sc4c(c23)CCN(Cc2ccccc2)C4)cc1Cl
Which has the higher IC50, 1 or 2 ? // caller expects the label of the chosen entry
1
(1: 91 nM, 2: 0.92 nM)

====

# experimentalTarget: PDE 4 (cGMP non-inhibitable cAMP PDE)
# protocolDescription: Phosphodiesterase inhibiting activity, PDE 4
# Type: biochemical
# conditions: isozyme from dog kidney; 1 μM [3H]-cAMP or [3H]-cGMP; read-out: Inhibition of PDE Activity: IC50 PDE 4
endpoint: IC50 (µM)

(I) COc1ccc(CNc2nc(C(=O)Nc3cccnc3)nc3sc4c(c23)CCN(C)C4)cc1Cl
(II) COc1ccc(CNc2nc(C(=O)Nc3ccc(-n4ccnc4)cc3)nc3sc4c(c23)CCN(C)C4)cc1Cl
Would you let me know which has the greater IC50 value, I or II ? Your choice should be expressed through its label.
I
(I: 6.4 µM, II: 3.4 µM)

====

endpoint: melting point

Observe how each entry below is paired with its result.
COc1ccc(CNc2nc(-c3ccco3)nc3sc4c(c23)CCN(C)C4)cc1Cl
90 to 92 °C
COc1ccc(CNc2nc(C(=O)NC3CC3)nc3sc4c(c23)CCN(C(C)C)C4)cc1Cl
112 to 114 °C
COc1ccc(CNc2nc(-c3ccncc3)nc3sc4c(c23)CCN(C)C4)cc1Cl
118 to 120 °C
CCOC(=O)N1CCc2c(sc3nc(-c4ccncc4)nc(NCc4ccc(OC)c(Cl)c4)c23)C1
218 to 220 °C
COC(=O)CNC(=O)c1nc(NCc2ccc(OC)c(Cl)c2)c2c3c(sc2n1)CN(C(C)C)CC3
155 to 157 °C

Item under review: `COc1ccc(CNc2nc(-c3cccnc3)nc3sc4c(c23)CCN(C(C)=O)C4)cc1Cl` . Reported melting point?
226 to 227 °C

Consider the compound `COc1ccc(CNc2nc(C(=O)Nc3cccnc3)nc3sc4c(c23)CCN(C)C4)cc1Cl` and give its measured melting point.
145 to 147 °C

Look up melting point: `COc1ccc(CNc2nc(C(=O)Nc3ccccc3)nc3sc4c(c23)CCCC4)cc1Cl`
210 to 211 °C

Data request, read-out melting point, for `COC(=O)c1nc(NCc2ccc(OC)c(Cl)c2)c2c3c(sc2n1)CN(Cc1ccccc1)CC3`
168 to 170 °C
